Every entry's value here was drawn from PubChem BioAssay (NCATS).

test: qHTS Assay for Lipid Storage Modulators (AID 1519); settings: Drosophila S3 cells, BODIPY lipid droplet/cell ratio, laser cytometry; at 57.5 µM (top of the series); cells loaded with oleic acid; also: % is scaled to controls: 0 for no effect and ±100 for the full control effect
Records with an inconclusive call do not appear.
Measured endpoint: activity change, negative = inhibition (%)
Record the value in %, omitting the unit from your answer.

q: For the compound shown here, C[C@@](N)(Cc1ccc(O)cc1)C(=O)O , give the reported activity change, negative = inhibition.
a: 1.23

q: For the compound shown here, O=C(c1cccc(F)c1)N1CCC2(CCCN(C(c3ccccc3)c3ccccc3)C2)CC1 , give the reported activity change, negative = inhibition.
a: 2.12

q: For the compound shown here, Cc1nc2cnc(N3CCNCC3)nc2n(CCC#N)c1=O , give the reported activity change, negative = inhibition.
a: 4.65

q: For the compound shown here, O=C(c1ccco1)N1CCC2(CC1)CCN(c1ccncc1)CC2 , give the reported activity change, negative = inhibition.
a: 3.95

q: For the compound shown here, COc1ccc(C(=O)N2CCC3(CCCN(Cc4ccc(C#N)cc4)C3)CC2)cc1 , give the reported activity change, negative = inhibition.
a: -2.89

q: For the compound shown here, COc1ccc(C(=O)N2CCC3(CC2)CN(c2ccc(-c4ccccc4)cc2)C3)cc1 , give the reported activity change, negative = inhibition.
a: -3.67

----------
biological target: 3',5'-cyclic-AMP phosphodiesterase 4B (Homo sapiens) (UniProt Q07343); test: qHTS Assay for Inhibitors of PDE-IV (AID 607); settings: HEK293 ACTOne CNG channel cells, membrane potential fluorescence; series mostly up to 22.9 µM
Sequence (Q07343 whole entry, looked up): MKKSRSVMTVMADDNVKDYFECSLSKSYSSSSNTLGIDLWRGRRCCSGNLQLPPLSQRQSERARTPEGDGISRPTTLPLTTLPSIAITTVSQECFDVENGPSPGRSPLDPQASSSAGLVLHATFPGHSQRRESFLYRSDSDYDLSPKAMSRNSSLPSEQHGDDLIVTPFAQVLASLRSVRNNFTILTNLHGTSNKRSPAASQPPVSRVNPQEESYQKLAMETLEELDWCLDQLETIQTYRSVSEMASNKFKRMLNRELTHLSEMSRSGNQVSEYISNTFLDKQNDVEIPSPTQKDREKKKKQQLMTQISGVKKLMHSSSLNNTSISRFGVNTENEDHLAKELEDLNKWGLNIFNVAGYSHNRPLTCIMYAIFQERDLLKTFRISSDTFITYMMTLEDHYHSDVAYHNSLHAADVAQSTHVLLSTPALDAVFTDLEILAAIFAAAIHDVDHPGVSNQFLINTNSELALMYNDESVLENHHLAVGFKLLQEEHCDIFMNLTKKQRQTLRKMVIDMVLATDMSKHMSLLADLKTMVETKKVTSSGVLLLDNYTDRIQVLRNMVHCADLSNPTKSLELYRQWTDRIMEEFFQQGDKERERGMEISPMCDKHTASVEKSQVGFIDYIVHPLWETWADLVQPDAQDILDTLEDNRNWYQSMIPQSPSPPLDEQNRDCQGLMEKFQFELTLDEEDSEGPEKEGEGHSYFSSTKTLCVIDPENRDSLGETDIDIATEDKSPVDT
Inconclusive results are not listed. The source made the active and inactive calls. Calls follow the shape of the dose curve; as a rule, active = well fitted activation curve with a large enough effect in the main read-out, with a control signal flat (not every such curve was filed as active); inconclusive = small, poorly fitted or top-dose-only effect, or effect the other way, or a change in a side signal; inactive = flat fitted curve, though single readings scatter.
Please state which outcome applies, choosing from class 1 = active, class 0 = inactive

q: Record lookup: outcome of this test for O=c1c(-c2ccc(F)cc2)nc2cnc(N3CCOCC3)nc2n1C1CC1 ?
a: class 0

q: Record lookup: outcome of this test for COc1ccccc1-c1cncnc1NCc1cnc(C)cn1 ?
a: class 0

q: Record lookup: outcome of this test for COC(=O)N1CCC2(CCN(Cc3ccccc3)CC2)CC1 ?
a: class 0

q: Record lookup: outcome of this test for O=C(c1csnn1)N1CCC2(CCCN(c3ccc(-c4ccccc4)cc3)C2)CC1 ?
a: class 0

q: Record lookup: outcome of this test for COc1ccc(Oc2ncc3nc(-c4ccc(F)cc4)c(=O)n(C)c3n2)cc1 ?
a: class 0

q: Record lookup: outcome of this test for O=C(c1cccc(F)c1)N1CCC2(CCN(Cc3ccncc3)CC2)CC1 ?
a: class 0

q: Record lookup: outcome of this test for COc1ccc(C(=O)N2CCC3(CCN(Cc4ccncc4)CC3)CC2)cc1 ?
a: class 0

q: Record lookup: outcome of this test for O=c1c(-c2cc(F)cc(F)c2)nc2cncnc2n1C1CC1 ?
a: class 0

q: Record lookup: outcome of this test for Cc1noc(C)c1-c1nc(NC2CCNCC2)c2ccccc2n1 ?
a: class 0

q: Record lookup: outcome of this test for Cc1nc2cncnc2n(Cc2ccc(F)cc2)c1=O ?
a: class 0

q: Record lookup: outcome of this test for CS(=O)(=O)N1CCC[C@@]2(CCN(c3ccncc3)C2)C1 ?
a: class 0

q: Record lookup: outcome of this test for COc1ncc2nc(-c3ccc(Cl)cc3)c(=O)n(Cc3cccs3)c2n1 ?
a: class 0

q: Record lookup: outcome of this test for Cc1ccccc1-c1cc(NCc2cccnc2)ncn1 ?
a: class 0

q: Record lookup: outcome of this test for Cc1noc(C)c1-c1nccc(N(C)C)n1 ?
a: class 0

q: Record lookup: outcome of this test for COc1cccc(-c2nccc(NCc3ccccc3OC)n2)c1 ?
a: class 0

q: Record lookup: outcome of this test for Cc1cccc(CNc2ccnc(-c3cccc(C#N)c3)n2)c1 ?
a: class 0

q: Record lookup: outcome of this test for CS(=O)(=O)Nc1cccc(-c2ccc3ncnc(NCc4cccnc4)c3c2)c1 ?
a: class 0

q: Record lookup: outcome of this test for O=C(c1ccco1)N1CCC2(CC1)CCN(c1ccccn1)CC2 ?
a: class 0

q: Record lookup: outcome of this test for COc1ccc(-c2nc3cnc(N(C)C)nc3n(C)c2=O)cc1 ?
a: class 0

q: Record lookup: outcome of this test for CN(C)c1ccc(-c2nc(-n3ccnc3)c3ccccc3n2)cc1 ?
a: class 0

q: Record lookup: outcome of this test for O=c1c(-c2cc(F)cc(F)c2)nc2cnc(N3CCNCC3)nc2n1Cc1ccc(F)cc1 ?
a: class 0

q: Record lookup: outcome of this test for Oc1cc2c(c(Cl)c1O)CCNC[C@H]2c1ccccc1 ?
a: class 0

q: Record lookup: outcome of this test for O=c1c(-c2ccc(F)cc2)nc2cnc(Nc3ccccc3)nc2n1Cc1cccs1 ?
a: class 0

q: Record lookup: outcome of this test for O=C(c1cc(C(F)(F)F)cc(C(F)(F)F)c1)N1CCC2(CCN(Cc3ccncc3)CC2)CC1 ?
a: class 0

q: Record lookup: outcome of this test for CCNc1ncc2nc(-c3cc(F)cc(F)c3)c(=O)n(CCc3ccccc3)c2n1 ?
a: class 0

q: Record lookup: outcome of this test for COc1ncc2nc(CCc3ccccc3)c(=O)n(CCC#N)c2n1 ?
a: class 0

q: Record lookup: outcome of this test for CN(C)c1ccc(-c2nc(N(C)C)c3ccccc3n2)cc1 ?
a: class 0

q: Record lookup: outcome of this test for Cc1cnc(CNc2cc(-c3c(C)noc3C)ncn2)cn1 ?
a: class 0

q: Record lookup: outcome of this test for CN(C)c1ncc2ncc(=O)n(C)c2n1 ?
a: class 0

q: Record lookup: outcome of this test for N#Cc1ccc(CN2CCCC3(CCN(C(=O)c4cc(C(F)(F)F)cc(C(F)(F)F)c4)CC3)C2)cc1 ?
a: class 0

q: Record lookup: outcome of this test for COc1ccc(-n2c(=O)c(-c3ccc(F)cc3)nc3cnc(OC)nc32)cc1 ?
a: class 0

q: Record lookup: outcome of this test for COc1ccc(CNc2ccnc(-c3cccc(NS(C)(=O)=O)c3)n2)c(OC)c1 ?
a: class 1

q: Record lookup: outcome of this test for Cc1noc(C)c1-c1cncnc1NC1CC1 ?
a: class 0

q: Record lookup: outcome of this test for Cc1noc(C)c1-c1ccc2ncnc(Nc3ccccc3)c2c1 ?
a: class 0

q: Record lookup: outcome of this test for COc1ccccc1CCn1c(=O)c(C)nc2cncnc21 ?
a: class 0

q: Record lookup: outcome of this test for COc1ccc(NC(=O)N2CC3(CCNCC3)C2)cc1 ?
a: class 0

q: Record lookup: outcome of this test for N#Cc1ccc(CN2CCC3(CC2)CCN(C(=O)c2ccncc2)CC3)cc1 ?
a: class 0

q: Record lookup: outcome of this test for COC(=O)N1CCC2(CCN(C(=O)Nc3cccc(F)c3)CC2)CC1 ?
a: class 0

q: Record lookup: outcome of this test for O=C(c1ccco1)N1CCC2(CCCN(c3ccccc3)C2)CC1 ?
a: class 0

q: Record lookup: outcome of this test for COC(=O)N1CCC2(CCCN(c3ccccn3)C2)CC1 ?
a: class 0

q: Record lookup: outcome of this test for O=C(c1cccc(F)c1)N1CCC2(CC1)CN(c1ccncc1)C2 ?
a: class 0

q: Record lookup: outcome of this test for COc1cccc(-c2cc(NCCc3c[nH]c4ccc(OC)cc34)ncn2)c1 ?
a: class 0

q: Record lookup: outcome of this test for CC(C)NC(=O)N1CCC2(CC1)CCN(S(=O)(=O)c1ccccc1)CC2 ?
a: class 0

q: Record lookup: outcome of this test for CN(C)c1ccc(-c2cc(NCc3cccnc3)ncn2)cc1 ?
a: class 0

q: Record lookup: outcome of this test for Cn1c(=O)c(-c2cccc(F)c2)nc2cncnc21 ?
a: class 0

q: Record lookup: outcome of this test for N#Cc1cccc(-c2cncnc2NCc2ccccc2)c1 ?
a: class 0

----------
molecular target: Cytochrome P450 3A4 (Homo sapiens); experiment: qHTS Assay for Inhibitors and Substrates of Cytochrome P450 3A4 (AID 884); conditions: recombinant CYP3A4, Luciferin-PPXE luminescence; series mostly up to 57.1 µM; also: nearly all actives have a fitted effect of over 50% in size
Results filed as inconclusive are left out. Active and inactive are the calls of the source. Calls come from the whole dose curve; as a rule, active = well fitted inhibition curve with a large enough effect; inconclusive = small, poorly fitted or top-dose-only effect; inactive = no such curve, though single readings can be large or run the other way.
Please state which outcome applies, choosing from true (1) for active, false (0) for inactive

q: Record lookup: outcome of this test for CN(Cc1ccco1)c1ncnc2ccc(-c3ccc4c(c3)OCO4)cc12 ?
a: true (1)

q: Record lookup: outcome of this test for COCCn1c(=O)c(-c2cccc(C#N)c2)nc2cnc(Oc3ccc(OC)cc3)nc21 ?
a: true (1)

q: Record lookup: outcome of this test for COc1ccc2[nH]cc(CCNc3cc(-c4ccccc4C)ncn3)c2c1 ?
a: true (1)

q: Record lookup: outcome of this test for Cn1c(=O)c(-c2ccc(Cl)cc2)nc2cnc(Oc3ccccc3)nc21 ?
a: false (0)

q: Record lookup: outcome of this test for COc1ccc(NC(=O)N2CCC3(CC2)CCN(C(=O)c2cccc(F)c2)CC3)cc1 ?
a: false (0)

q: Record lookup: outcome of this test for COc1ccc(Oc2ncc3nc(-c4cc(F)cc(F)c4)c(=O)n(C)c3n2)cc1 ?
a: true (1)

q: Record lookup: outcome of this test for COc1c(O)cc2oc3cc(O)c(CC=C(C)C)c(O)c3c(=O)c2c1CC=C(C)C ?
a: false (0)

q: Record lookup: outcome of this test for COc1ccccc1CNc1nc(-c2ccc(N(C)C)cc2)nc2ccccc12 ?
a: true (1)

q: Record lookup: outcome of this test for CCNc1ncc2nc(-c3cccs3)c(=O)n(Cc3cccs3)c2n1 ?
a: true (1)

q: Record lookup: outcome of this test for Cc1cccc(CNc2ccnc(-c3ccccc3Cl)n2)c1 ?
a: true (1)
